Where these numbers come from: the supplement of paper PMC10307832

# System: NCI-H2170
# measurementProtocol: relative viability (nuclei count vs DMSO), 5 days (fraction); higher = more cells survive
# assayContext: first compound 0.03162 µM
quantityKind: relative viability

Report relative viability on NCI-H2170 for this entry: CC(C)Oc1cc(Nc2nc(N[C@@H](C)c3ccc(F)cn3)ncc2Cl)n[nH]1 [AZ23] + CC1(C)CCC(c2ccc(Cl)cc2)=C(CN2CCN(c3ccc(C(=O)NS(=O)(=O)c4ccc(N[C@H](CCN5CCOCC5)CSc5ccccc5)c(S(=O)(=O)C(F)(F)F)c4)cc3)CC2)C1 [Navitoclax] (partner 0.5 µM)
0.687

Quote relative viability with test system NCI-H2170 for CC(C)Oc1cc(Nc2nc(N[C@@H](C)c3ccc(F)cn3)ncc2Cl)n[nH]1 [AZ23] + N=C(N)NC(=N)NCCc1ccccc1 [Phenformin] (partner 250 µM)
0.424

Look up and report measured relative viability (NCI-H2170) for the following molecule: CC(C)Oc1cc(Nc2nc(N[C@@H](C)c3ccc(F)cn3)ncc2Cl)n[nH]1 [AZ23] + Cc1nc(Nc2ncc(C(=O)Nc3c(C)cccc3Cl)s2)cc(N2CCN(CCO)CC2)n1 [Dasatinib] (partner 0.075 µM)
0.618

Fetch value of relative viability on NCI-H2170 for CC(C)Oc1cc(Nc2nc(N[C@@H](C)c3ccc(F)cn3)ncc2Cl)n[nH]1 [AZ23] + Nc1nc2[nH]cc(CCc3ccc(C(=O)N[C@@H](CCC(=O)O)C(=O)O)cc3)c2c(=O)[nH]1 [Pemetrexed] (partner 0.2 µM) .
0.265

Report its relative viability with NCI-H2170 as the test system: CC(C)Oc1cc(Nc2nc(N[C@@H](C)c3ccc(F)cn3)ncc2Cl)n[nH]1 [AZ23] + Nc1ncn([C@H]2C[C@H](O)[C@@H](CO)O2)c(=O)n1 [Decitabine] (partner 2 µM)
0.475

Write down the reported relative viability (system: NCI-H2170) of CC(C)Oc1cc(Nc2nc(N[C@@H](C)c3ccc(F)cn3)ncc2Cl)n[nH]1 [AZ23] + C[C@@H](Oc1cc(-c2cnn(C3CCNCC3)c2)cnc1N)c1c(Cl)ccc(F)c1Cl [Crizotinib] (partner 1 µM)
1.45

----------
# Tested on: NCI-H2126
# measurementProtocol: relative viability (nuclei count vs DMSO), 5 days (fraction); higher = more cells survive
# assayContext: first compound 0.04 µM
quantityKind: relative viability
Form rule: numeric answer, no unit written next to it.

Give a short answer stating reported relative viability for C[C@@H]1CN(CC(=O)Nc2ccc3c(c2)Cc2cccc(-c4cc(=O)cc(N5CCOCC5)o4)c2S3)C[C@H](C)O1 + CS(=O)(=O)CCNCc1ccc(-c2ccc3ncnc(Nc4ccc(OCc5cccc(F)c5)c(Cl)c4)c3c2)o1 [Lapatinib] (partner 2 µM) .
0.762

Identify measured relative viability corresponding to COc1cc(N2CCC(C(N)=O)CC2)ccc1Nc1nc(N)c(Cl)c(Nc2ccccc2S(=O)(=O)C(C)C)n1 [HG-5-88-01] + CS(=O)(=O)CCNCc1ccc(-c2ccc3ncnc(Nc4ccc(OCc5cccc(F)c5)c(Cl)c4)c3c2)o1 [Lapatinib] (partner 2 µM)
0.649

Output relative viability of C[C@@H]1CN(CC(=O)Nc2ccc3c(c2)Cc2cccc(-c4cc(=O)cc(N5CCOCC5)o4)c2S3)C[C@H](C)O1 + Nc1ncn([C@H]2C[C@H](O)[C@@H](CO)O2)c(=O)n1 [Decitabine] (partner 2 µM)
0.543

Return relative viability for the following compound: C[C@@H]1CN(CC(=O)Nc2ccc3c(c2)Cc2cccc(-c4cc(=O)cc(N5CCOCC5)o4)c2S3)C[C@H](C)O1 + CCNC(=O)c1noc(-c2cc(C(C)C)c(O)cc2O)c1-c1ccc(CN2CCOCC2)cc1 [Luminespib] (partner 0.01 µM)
1.04
